Tested on: Puccinia triticina
Test: Wheat Brown Rust fungicidal activity (PUCCRT)
Assay type: in vivo
Settings: 24 h, Low Volume Cereal Activity at 121.5 g/Ha, 1 Day Protectant, read-out: PUCCRT 1DP (Wheat Brown Rust, 1 Day Protectant)
Experimental: All fungicides were evaluated using the aforementioned method for their activity vs. all target diseases, unless stated otherwise. Wheat leaf blotch and brown rust activity were also evaluated using track spray applications, in which case the fungicides were formulated as EC formulations, containing 0.1% Trycol 5941 in the spray solutions. […] Percent disease control was calculated using the ratio of disease severity on treated plants relative to untreated plants. […]
I'd be grateful if you could share measured pest or weed control at 121.5 g/ha for these entries.

Solved entries:
COc1ccnc(C(=O)N[C@@H](C)C(=O)O[C@@H](C)[C@@H](Oc2ccccc2)c2ccccc2)c1OCOC(C)=O : > 80%
COc1ccnc(C(=O)N[C@@H](C)C(=O)O[C@@H](C)[C@H](Oc2cccc(F)c2)c2cccc(-c3ccccc3)c2)c1OC(C)=O : > 80%

Proceed to the following item.
Reported pest or weed control at 121.5 g/ha of COc1ccnc(C(=O)N[C@@H](C)C(=O)O[C@@H](C)[C@H](Oc2cccc(F)c2)c2ccccc2)c1OC(C)=O : > 80%

---

Tested on: Phakopsora pachyrhizi
Assay: Asian Soybean Rust fungicidal activity (PHAKPA)
Details: Phakopsora pachyrhizi, in Glycine max, 72 h, read-out: PHAKPA 3DC % Control rating, soybean, high volume, 25 ppm, 3 Day Curative
I'd be grateful if you could share measured pest or weed control at 25 ppm for these entries.

Solved entries:
COc1ccnc(C(=O)N[C@@H](C)C(=O)O[C@@H](C)[C@H](Oc2ccccc2Cl)c2ccccc2)c1OC(C)=O [Example 205] : < 80%
COc1ccnc(C(=O)N[C@H](C)C(=O)O[C@H](C)[C@@H](Oc2ccccc2)c2ccccc2)c1OCOC(C)=O [Example 186] : < 0%
CCCO[C@H](c1ccccc1)[C@H](C)OC(=O)[C@H](C)NC(=O)c1nccc(OC)c1OC(C)=O [Example 228] : < 0%
COc1cc(F)ccc1[C@@H](Oc1ccc(C)cc1Cl)[C@H](C)OC(=O)[C@H](C)NC(=O)c1nccc(OC)c1OC(C)=O [Example 266] : < 0%
COc1ccnc(C(=O)N[C@@H](C)C(=O)O[C@@H](C)[C@H](Oc2ccc(F)cc2)c2ccccc2)c1OCOC(C)=O [Example 237] : < 80%
COc1ccnc(C(=O)N[C@@H](C)C(=O)O[C@H](C)[C@@H](Oc2ccccc2)c2ccccc2)c1OCOC(C)=O [Example 185] : < 0%
COc1ccnc(C(=O)N[C@@H](C)C(=O)O[C@@H](C)[C@H](Oc2ccccc2)c2ccccc2)c1OCOC(C)=O [Example 183] : < 80%
COc1cc(F)ccc1[C@H](OC1CC1)[C@H](C)OC(=O)[C@H](C)NC(=O)c1nccc(OC)c1OC(C)=O [Example 298] : < 80%
COc1ccnc(C(=O)N[C@@H](C)C(=O)O[C@@H](C)[C@H](Oc2cccc(Cl)c2)c2ccccc2)c1OCOC(C)=O [Example 202] : < 80%
C=CCOc1cc(F)ccc1[C@@H](Oc1ccccc1)[C@H](C)OC(=O)[C@H](C)NC(=O)c1nccc(OC)c1OC(C)=O [Example 264] : < 80%

Give one value of pest or weed control at 25 ppm per listed compound.
1. COc1ccnc(C(=O)N[C@@H](C)C(=O)O[C@@H](C)[C@H](Oc2cc(F)cc(Cl)c2)c2ccccc2)c1OC(C)=O [Example 207]
2. COc1cc(F)ccc1[C@@H](Oc1ccc(C)cc1)[C@H](C)OC(=O)[C@H](C)NC(=O)c1nccc(OC)c1OC(C)=O [Example 271]

Data returned:
1. < 80%
2. < 80%

Reported pest or weed control at 25 ppm of CCCOc1cc(F)ccc1[C@@H](Oc1ccccc1)[C@H](C)OC(=O)[C@H](C)NC(=O)c1nccc(OC)c1OC(C)=O [Example 268] : < 80%

---

Tested on: Zymoseptoria tritici
Assay: Leaf Blotch of Wheat fungicidal activity (SEPTTR)
Assay type: in vivo
Details: 24 h, wheat, high volume, 100 ppm, 1 Day Protectant, read-out: SEPTTR 1DP % Control rating
OBSERVATION_TYPE: pest or weed control at 100 ppm

COc1ccnc(C(=O)N[C@@H](C)C(=O)O[C@@H](C)[C@@H](OCC(C)C)c2ccccc2)c1O : < 80%
COc1ccnc(C(=O)N[C@@H](C)C(=O)O[C@@H](C)[C@H](Oc2ccccc2)c2ccc(C)cc2)c1O : > 80%
COc1cc(F)ccc1[C@@H](OC(=O)C(C)(C)C)[C@H](C)OC(=O)[C@H](C)NC(=O)c1nccc(OC)c1O : > 80%
COc1cc(F)ccc1[C@@H](OC(=O)C1CC1)[C@H](C)OC(=O)[C@H](C)NC(=O)c1nccc(OC)c1O : < 0%
COc1ccnc(C(=O)N[C@@H](C)C(=O)O[C@@H](C)[C@@H](Oc2ccccc2)c2ccccc2)c1O : > 80%

Give one value of pest or weed control at 100 ppm per listed compound.
1. COc1ccnc(C(=O)N[C@@H](C)C(=O)O[C@@H](C)[C@H](Oc2ccccc2)c2ccc(C)cc2F)c1O
2. COc1ccnc(C(=O)N[C@@H](C)C(=O)O[C@@H](C)[C@H](Oc2ccccc2)c2ccc(F)cc2Cl)c1O
3. C=CCOc1cc(F)ccc1[C@@H](Oc1ccccc1)[C@H](C)OC(=O)[C@H](C)NC(=O)c1nccc(OC)c1O

Data returned:
1. > 80%
2. > 80%
3. > 80%

Reported pest or weed control at 100 ppm of COc1cc(C)ccc1[C@@H](Oc1ccc(C)cc1)[C@H](C)OC(=O)[C@H](C)NC(=O)c1nccc(OC)c1O : > 80%

---

Test system: Puccinia triticina
Test: Wheat Brown Rust fungicidal activity (PUCCRT)
Type: in vivo
Settings: 24 h, Low Volume Cereal Activity at 121.5 g/Ha, 1 Day Protectant, read-out: PUCCRT 1DP (Wheat Brown Rust, 1 Day Protectant)
I'd be grateful if you could share measured pest or weed control at 121.5 g/ha for these entries.

COc1ccnc(C(=O)N[C@@H](C)C(=O)O[C@@H](C)[C@H](Oc2cc(F)cc(Cl)c2)c2ccccc2)c1OCOC(C)=O : > 80%

Give one value of pest or weed control at 121.5 g/ha per listed compound.
1. COc1ccnc(C(=O)N[C@@H](C)C(=O)O[C@@H](C)[C@H](Oc2ccc(C)cc2)c2ccccc2)c1OC(C)=O
2. COc1ccnc(C(=O)N[C@@H](C)C(=O)O[C@@H](C)[C@H](Oc2ccc(C)cc2)c2ccc(C)cc2)c1OCOC(C)=O
3. COc1ccnc(C(=O)N[C@@H](C)C(=O)O[C@@H](C)[C@H](Oc2ccccc2)c2ccccc2)c1OC(C)=O
4. CCCO[C@H](c1ccccc1)[C@H](C)OC(=O)[C@H](C)NC(=O)c1nccc(OC)c1OC(C)=O
5. CC[C@H](NC(=O)c1nccc(OC)c1OC(C)=O)C(=O)O[C@@H](C)[C@H](Oc1cc(F)cc(Cl)c1)c1ccccc1
6. COc1cc(F)ccc1[C@@H](OC(=O)C1CC1)[C@H](C)OC(=O)[C@H](C)NC(=O)c1nccc(OC)c1OC(C)=O
7. COc1ccnc(C(=O)N[C@@H](C)C(=O)O[C@@H](C)[C@H](Oc2cccc(Cl)c2)c2ccccc2)c1OCOC(C)=O

Data returned:
1: > 80%; 2: > 80%; 3: > 80%; 4: > 80%; 5: > 80%; 6: < 0%; 7: > 80%

---

System: Venturia inaequalis
Test: Apple Scab fungicidal activity (VENTIN)
Format: in vivo
Details: 24 h, high volume, 1 Day Protectant, read-out: VENTIN % Control rating
I'd be grateful if you could share measured pest or weed control at 100 ppm for these entries.

Solved entries:
COc1ccnc(C(=O)N[C@@H](C)C(=O)O[C@@H](C)[C@H](Oc2ccccc2)c2ccc3ccccc3c2)c1OCOC(C)=O [Example 263] : < 80%
COc1ccnc(C(=O)N[C@@H](C)C(=O)O[C@@H](C)C(Oc2ccc(F)cc2)c2ccc(F)cc2)c1OCOC(C)=O (stereo partly shown) [Example 238] : > 80%
COc1ccnc(C(=O)N[C@@H](C)C(=O)O[C@H](C)[C@@H](Oc2ccccc2)c2ccccc2)c1OCOC(C)=O [Example 185] : < 80%
COc1ccnc(C(=O)N[C@@H](C)C(=O)O[C@@H](C)[C@H](Oc2ccccc2)c2ccc(F)cc2Cl)c1OCOC(C)=O [Example 260] : < 80%
COc1ccnc(C(=O)N[C@@H](C)C(=O)O[C@@H](C)[C@H](Oc2ccc(F)cc2)c2ccccc2)c1OC(C)=O [Example 235] : < 80%
COc1ccnc(C(=O)N[C@H](C)C(=O)O[C@H](C)[C@@H](Oc2ccccc2)c2ccccc2)c1OCOC(C)=O [Example 186] : < 80%

Proceed to the following item.
Reported pest or weed control at 100 ppm of COc1ccnc(C(=O)N[C@@H](C)C(=O)O[C@@H](C)C(Oc2ccc(F)cc2)c2ccccc2)c1OC(C)=O (stereo partly shown) [Example 236] : > 80%
